- assay target: FSHR (Homo sapiens, UniProt P23945)
- Construct: expressed in transfected cells; host or cells: CHO (Cho-FSHR-LUC-1-1-43)
- Sequence (P23945 18-695): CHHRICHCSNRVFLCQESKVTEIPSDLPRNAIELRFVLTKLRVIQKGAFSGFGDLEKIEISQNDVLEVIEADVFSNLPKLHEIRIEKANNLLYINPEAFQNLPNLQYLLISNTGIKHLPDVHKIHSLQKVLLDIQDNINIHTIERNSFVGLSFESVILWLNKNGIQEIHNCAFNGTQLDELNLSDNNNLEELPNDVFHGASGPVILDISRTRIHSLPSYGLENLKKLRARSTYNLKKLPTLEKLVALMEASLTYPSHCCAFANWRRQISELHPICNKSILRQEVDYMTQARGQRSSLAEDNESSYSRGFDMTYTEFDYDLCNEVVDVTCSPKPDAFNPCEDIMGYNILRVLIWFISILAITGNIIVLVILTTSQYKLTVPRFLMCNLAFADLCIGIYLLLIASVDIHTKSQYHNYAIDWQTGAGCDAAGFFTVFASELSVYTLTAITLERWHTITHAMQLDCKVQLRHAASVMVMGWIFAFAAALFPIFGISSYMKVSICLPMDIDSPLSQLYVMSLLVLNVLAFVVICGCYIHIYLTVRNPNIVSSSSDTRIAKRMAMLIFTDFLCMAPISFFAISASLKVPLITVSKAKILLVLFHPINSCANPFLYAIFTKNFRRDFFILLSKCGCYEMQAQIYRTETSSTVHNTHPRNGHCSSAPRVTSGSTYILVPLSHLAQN
- method notes: EC50 of cyclic AMP production in CHO FSHR cells + EC20 FSH (Assay A)
- Type: cell-based
- condition: CHO FSHR cells + EC20 FSH, cAMP HTRF; read-out: Assay A: EC50 of cyclic AMP production
In this section, each of the compounds is paired with its reported EC50.
property label: EC50

>  <smiles entry>
COc1cc2c(cc1C(N)=O)-c1c(c(C(=O)N(C)C(C)(C)C)nn1-c1ccsc1)CO2

>  <property label>
EC50

>  <measurement>
< 100 nM

$$$$
>  <smiles entry>
COc1cc2c(cc1CNC(C)=O)-c1c(c(C(=O)N3CCOCC3(C)C)nn1-c1ccsc1)CO2

>  <property label>
EC50

>  <measurement>
100 to 1000 nM

$$$$
>  <smiles entry>
COc1cc2c(cc1-c1cnn(CCN(C)C)c1)-c1c(c(C(=O)N3CCOCC3(C)C)nn1-c1ccsc1)CO2

>  <property label>
EC50

>  <measurement>
100 to 1000 nM

$$$$
>  <smiles entry>
[2H]C([2H])([2H])O[C@H]1CC[C@H](N(C(=O)c2nn(-c3ccsc3)c3c2COc2cc(OC)c(-c4ccn(C)n4)cc2-3)C([2H])([2H])[2H])C1

>  <property label>
EC50

>  <measurement>
> 5000 nM

$$$$
>  <smiles entry>
COc1cc2c(cc1-c1cn[nH]c1)-c1c(c(C(=O)N(C)C(C)(C)C)nn1-c1ccsc1)CO2

>  <property label>
EC50

>  <measurement>
< 100 nM

$$$$
>  <smiles entry>
COc1cc2c(cc1-c1c[nH]nc1C)-c1c(c(C(=O)N(C)C(C)(C)C)nn1-c1ccsc1)CO2

>  <property label>
EC50

>  <measurement>
< 100 nM

$$$$
>  <smiles entry>
COc1cc2c(cc1C=C(C)C)-c1c(c(C(=O)NCCCc3nnn[nH]3)nn1-c1ccsc1)CO2

>  <property label>
EC50

>  <measurement>
1000 to 5000 nM

$$$$
>  <smiles entry>
COc1cc2c(cc1-c1cnn(C(C)C)c1)-c1c(c(C(=O)N3CCOCC3(C)C)nn1-c1ccsc1)CO2

>  <property label>
EC50

>  <measurement>
< 100 nM

$$$$
>  <smiles entry>
COc1cc2c(cc1CC(C)C)-c1c(c(C(=O)N(C)C(C)(C)C)nn1-c1cccs1)CO2

>  <property label>
EC50

>  <measurement>
< 100 nM

$$$$
>  <smiles entry>
COc1cc2c(cc1-c1ccn(C(C)C)n1)-c1c(c(C(=O)N3CCOCC3(C)C)nn1-c1ccsc1)CO2

>  <property label>
EC50

>  <measurement>
< 100 nM

$$$$
>  <smiles entry>
COc1cc2c(cc1OC(C)C)-c1c(c(C(=O)NCCCN)nn1-c1ccsc1)CO2

>  <property label>
EC50

>  <measurement>
> 5000 nM

$$$$
>  <smiles entry>
COc1cc2c(cc1C=C(C)C)-c1c(c(C(=O)N3CCC34COC4)nn1-c1ccsc1)CO2

>  <property label>
EC50

>  <measurement>
100 to 1000 nM

$$$$
